target: Tyrosine-protein kinase Fyn (Homo sapiens); assay: Inhibition of recombinant full length N-terminal His6 tagged human FYN expressed in baculovirus infected sf21 cells using KVEKIGEGTYGVVYK as substrate in presence of [gamma33P]ATP by scintillation counting method
Sequence (P06241 whole entry): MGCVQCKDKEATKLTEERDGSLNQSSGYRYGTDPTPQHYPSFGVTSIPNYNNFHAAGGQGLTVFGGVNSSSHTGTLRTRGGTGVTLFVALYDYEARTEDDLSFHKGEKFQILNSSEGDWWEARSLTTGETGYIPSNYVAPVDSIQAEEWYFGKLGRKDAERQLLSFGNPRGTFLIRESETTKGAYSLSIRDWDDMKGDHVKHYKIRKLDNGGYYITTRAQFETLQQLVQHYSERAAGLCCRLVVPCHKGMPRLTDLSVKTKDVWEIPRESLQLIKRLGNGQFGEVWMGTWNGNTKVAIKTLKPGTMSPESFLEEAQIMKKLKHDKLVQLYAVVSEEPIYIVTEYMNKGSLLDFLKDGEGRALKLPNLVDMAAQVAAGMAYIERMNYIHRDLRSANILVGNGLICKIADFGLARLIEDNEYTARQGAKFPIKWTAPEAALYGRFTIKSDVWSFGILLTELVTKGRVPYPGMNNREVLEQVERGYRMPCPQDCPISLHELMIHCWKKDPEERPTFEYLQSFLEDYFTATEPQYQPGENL
pKi: −log10 of the molar value.
Recorded Metric: pKi

Nc1ncnc2c1c(-c1ccc(CO)cc1)nn2CC(Cl)c1ccccc1 (racemic); 6.92
Nc1ncnc2c1c(-c1ccc(Cl)cc1)nn2CC(Cl)c1ccccc1 (configuration not stated); 6.80

----------
molecular target: Tyrosine-protein kinase Lyn (Homo sapiens, UniProt P07948)
Sequence (P07948 whole entry): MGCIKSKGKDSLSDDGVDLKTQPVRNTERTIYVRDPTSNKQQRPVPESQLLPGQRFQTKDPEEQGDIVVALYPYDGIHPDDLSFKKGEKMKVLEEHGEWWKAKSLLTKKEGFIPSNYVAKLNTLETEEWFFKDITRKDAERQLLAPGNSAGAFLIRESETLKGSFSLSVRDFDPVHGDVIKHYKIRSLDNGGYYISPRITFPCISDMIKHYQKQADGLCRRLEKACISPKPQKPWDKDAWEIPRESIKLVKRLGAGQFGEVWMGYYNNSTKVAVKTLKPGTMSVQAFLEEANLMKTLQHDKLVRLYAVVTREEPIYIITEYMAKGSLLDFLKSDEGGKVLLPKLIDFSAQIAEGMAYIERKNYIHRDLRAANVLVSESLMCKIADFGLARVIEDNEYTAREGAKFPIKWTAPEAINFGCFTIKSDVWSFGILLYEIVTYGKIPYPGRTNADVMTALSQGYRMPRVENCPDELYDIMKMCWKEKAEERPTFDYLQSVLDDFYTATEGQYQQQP
Recorded Metric: Ki (nM)
// return numeric value only (unit: nM, not printed)

# input Fill in the blank: the reported Ki of Nc1ncnc2c1c(-c1ccc(CO)cc1)nn2CC(Cl)c1ccccc1 (racemic) is ____.
# output 190

----------
assay: Aqueous solubility of compound at 1 mg after 24 hrs by LC-MS/MS analysis; format: physicochemical; conditions: water
Recorded Metric: solubility at 24 h (µg/mL)

(a) Nc1ncnc2c1c(-c1ccc(CO)cc1)nn2CC(Cl)c1ccccc1 (racemic)
(b) Nc1ncnc2c1c(-c1ccc(Cl)cc1)nn2CC(Cl)c1ccccc1 (configuration not stated)
# input Looking only at measured solubility at 24 h, which entry is lower, a or b ? // return label of chosen record
# output b
(b: 0.01 µg/mL, a: 0.09 µg/mL)

----------
system: FEPD; test: Antiproliferative activity against human FEPD cells assessed as reduction in cell viability after 72 hrs by MTT assay
Recorded Metric: pIC50
Kindly note that pIC50 refers to -log10 of the concentration in mol/L and answer with the value alone.

Nc1ncnc2c1c(-c1ccc(CO)cc1)nn2CC(Cl)c1ccccc1 (racemic); 4.96
Nc1ncnc2c1c(-c1ccc(Cl)cc1)nn2CC(Cl)c1ccccc1 (centres undefined); 4.80
Nc1ncnc2c1c(-c1cccc(Cl)c1)nn2CC(Cl)c1ccccc1 (racemic); 4.60
Nc1ncnc2c1c(-c1ccc(Cl)cc1)nn2CCc1ccccc1; 4.51
CCCc1ccc(-c2nn(CC(Cl)c3ccccc3)c3ncnc(N)c23)cc1 (racemic); 4.54

Kindly consider the entry below.
# input Give recorded pIC50 with FEPD for the following molecule: Nc1ncnc2c1c(-c1ccc(CO)cc1)nn2CC(O)c1ccccc1 (racemic)
# output 4.58

----------
system: SU-DHL-8; assay: Antiproliferative activity against human SUDHL8 cells assessed as reduction in cell viability after 72 hrs by MTT assay; details: SU-DHL-8, 72 h
pIC50: −log10 of the molar value.
Recorded Metric: pIC50

Completed entries (count: 6):
Cc1ccc(-c2nn(CC(Cl)c3ccccc3)c3ncnc(N)c23)cc1 (stereo not given); 4.92
Nc1ncnc2c1c(-c1ccccc1Cl)nn2CC(Cl)c1ccccc1 (racemic); 4.74
Nc1ncnc2c1c(-c1ccc(Br)cc1)nn2CC(Cl)c1ccccc1 (racemic); 4.93
Nc1ncnc2c1c(-c1cccc(Cl)c1)nn2CC(Cl)c1ccccc1 (racemic); 4.86
Nc1ncnc2c1c(-c1ccc(I)cc1)nn2CC(Cl)c1ccccc1 (racemic); 4.94
CC(Cn1nc(-c2ccc(F)cc2)c2c(N)ncnc21)c1ccccc1 (racemic); 4.92

(I) CCc1ccc(-c2nn(CC(Cl)c3ccccc3)c3ncnc(N)c23)cc1 (racemic)
(II) Nc1ncnc2c1c(-c1ccc(Cl)cc1)nn2CC(Cl)c1ccccc1 (stereo not given)
(III) Cc1ccc(-c2nn(CCc3ccccc3)c3ncnc(N)c23)cc1
# input Provide the items ranked by increasing pIC50. Your answer should be the labels, listed in the requested order.
# output III, I, II

----------
test system: Farage; test: Antiproliferative activity against human Farage cells assessed as reduction in cell viability after 72 hrs by MTT assay
Recorded Metric: pIC50
Kindly note that pIC50 refers to -log10 of the concentration in mol/L and answer with the value alone.

Nc1ncnc2c1c(-c1ccc(Cl)cc1)nn2CC(Cl)c1ccccc1 (centres undefined); 4.83
Cc1ccc(-c2nn(CC(Cl)c3ccccc3)c3ncnc(N)c23)cc1 (centres undefined); 4.72
Cc1ccc(-c2nn(CCc3ccccc3)c3ncnc(N)c23)cc1; 4.80
Nc1ncnc2c1c(-c1ccc(Cl)cc1)nn2CCc1ccccc1; 4.73
Nc1ncnc2c1c(-c1ccccc1Cl)nn2CC(Cl)c1ccccc1 (racemic); 4.29

# input Fill in the blank: the reported pIC50 of Nc1ncnc2c1c(-c1cccc(Cl)c1)nn2CC(Cl)c1ccccc1 (racemic) is ____.
# output 4.51

# input Fill in the blank: the reported pIC50 of Nc1ncnc2c1c(-c1ccc(I)cc1)nn2CC(Cl)c1ccccc1 (racemic) is ____.
# output 4.90

# input Fill in the blank: the reported pIC50 of CCCc1ccc(-c2nn(CC(Cl)c3ccccc3)c3ncnc(N)c23)cc1 (racemic) is ____.
# output 4.53

# input Fill in the blank: the reported pIC50 of Nc1ncnc2c1c(-c1ccc(Br)cc1)nn2CC(Cl)c1ccccc1 (racemic) is ____.
# output 4.87

# input Fill in the blank: the reported pIC50 of Nc1ncnc2c1c(-c1ccc(CO)cc1)nn2CC(Cl)c1ccccc1 (racemic) is ____.
# output 5.15

# input Fill in the blank: the reported pIC50 of CC(Cn1nc(-c2ccc(F)cc2)c2c(N)ncnc21)c1ccccc1 (racemic) is ____.
# output 4.64

# input Fill in the blank: the reported pIC50 of CCc1ccc(-c2nn(CC(Cl)c3ccccc3)c3ncnc(N)c23)cc1 (racemic) is ____.
# output 4.64

# input Fill in the blank: the reported pIC50 of Nc1ncnc2c1c(-c1ccc(CO)cc1)nn2CC(O)c1ccccc1 (racemic) is ____.
# output 4.57

----------
The following compounds are shown together with reported pIC50 values.
system: HH; assay: Antiproliferative activity against human HH cells assessed as reduction in cell viability after 72 hrs by MTT assay
Kindly note that pIC50 refers to -log10 of the concentration in mol/L and answer with the value alone.

Completed entries (count: 4):
Nc1ncnc2c1c(-c1cccc(Cl)c1)nn2CC(Cl)c1ccccc1 (racemic); 4.37
Nc1ncnc2c1c(-c1ccc(CO)cc1)nn2CC(Cl)c1ccccc1 (racemic); 5.62
CCc1ccc(-c2nn(CC(Cl)c3ccccc3)c3ncnc(N)c23)cc1 (racemic); 4.68
Nc1ncnc2c1c(-c1ccc(CO)cc1)nn2CC(O)c1ccccc1 (racemic); 4.76

Kindly consider the entry below.
# input Give recorded pIC50 with HH for the following compound: CC(Cn1nc(-c2ccc(F)cc2)c2c(N)ncnc21)c1ccccc1 (racemic)
# output 4.93

----------
system: HH; assay: Antiproliferative activity against human HH cells assessed as reduction in cell viability after 72 hrs by MTT assay
The following compounds are shown together with reported IC50 values.
// return numeric value only (unit: µM, not printed)

CCCc1ccc(-c2nn(CC(Cl)c3ccccc3)c3ncnc(N)c23)cc1 (racemic); 48.5

# input Fill in the blank: the reported IC50 of Nc1ncnc2c1c(-c1ccc(Br)cc1)nn2CC(Cl)c1ccccc1 (racemic) is ____.
# output 12.4

# input Fill in the blank: the reported IC50 of Cc1ccc(-c2nn(CCc3ccccc3)c3ncnc(N)c23)cc1 is ____.
# output 17.3

# input Fill in the blank: the reported IC50 of Nc1ncnc2c1c(-c1ccc(I)cc1)nn2CC(Cl)c1ccccc1 (racemic) is ____.
# output 5.24

----------
assay: Apparent permeability of compound at 500 uM after 5 hrs by UV/LC-MS analysis based GI-PAMPA assay; type: ADME
Recorded Metric: Papp at 5 h, 500 µM (×10⁻⁶ cm/s)

Nc1ncnc2c1c(-c1ccc(CO)cc1)nn2CC(Cl)c1ccccc1 (racemic); 10.8
Nc1ncnc2c1c(-c1ccc(Cl)cc1)nn2CC(Cl)c1ccccc1 (configuration not stated); 9.95

----------
tested on: SU-DHL-8; assay: Antiproliferative activity against human SUDHL8 cells assessed as reduction in cell viability after 72 hrs by MTT assay; conditions: SU-DHL-8, 72 h
pIC50: −log10 of the molar value.
Recorded Metric: pIC50

CCCc1ccc(-c2nn(CC(Cl)c3ccccc3)c3ncnc(N)c23)cc1 (racemic); 5.17
Nc1ncnc2c1c(-c1ccc(CO)cc1)nn2CC(O)c1ccccc1 (racemic); 4.57

(P) Nc1ncnc2c1c(-c1ccc(Cl)cc1)nn2CCc1ccccc1
(Q) Nc1ncnc2c1c(-c1ccc(CO)cc1)nn2CC(Cl)c1ccccc1 (racemic)
# input Looking only at measured pIC50, which entry is lower, P or Q ? // return label of chosen record
# output P

----------
experiment: Metabolic stability in human liver microsomes assessed as compound remaining at 50 uM after 1 hr by UV/LC-MS analysis relative to control; assay type: ADME, Microsome; conditions: read-out: Stability
Recorded Metric: remaining at 1 h, 50 µM (%)

Nc1ncnc2c1c(-c1ccc(CO)cc1)nn2CC(Cl)c1ccccc1 (racemic); 85
Nc1ncnc2c1c(-c1ccc(Cl)cc1)nn2CC(Cl)c1ccccc1 (configuration not stated); 85.2

----------
The following compounds are shown together with reported IC50 values.
system: HH; assay: Antiproliferative activity against human HH cells assessed as reduction in cell viability after 72 hrs by MTT assay
// return numeric value only (unit: µM, not printed)

# input Fill in the blank: the reported IC50 of Nc1ncnc2c1c(-c1ccc(Cl)cc1)nn2CC(Cl)c1ccccc1 (centres undefined) is ____.
# output 13.9

# input Fill in the blank: the reported IC50 of Cc1ccc(-c2nn(CC(Cl)c3ccccc3)c3ncnc(N)c23)cc1 (centres undefined) is ____.
# output 14.8

# input Fill in the blank: the reported IC50 of Nc1ncnc2c1c(-c1ccc(Cl)cc1)nn2CCc1ccccc1 is ____.
# output 18.2
